Tested on: COLO 205 colon
Test: NCI-60 one-dose screen, 48 h
Settings: 10 µM unless noted
The panel holds about 83,000 compounds, 20% with a hit somewhere; the sample as a whole holds those more often. Calls of active or inactive are those of the source. How the source made its calls: active means growth percent below 10; inactive means the rest.
Labels: Yes = active, No = inactive

{"molecule": "Cc1cc(N2CCCCCC2)nc(NC2CCCC(Nc3ccnc4cc(Cl)ccc34)C2)n1 (centres undefined)", "label": "Yes"}
{"molecule": "C=CCSSc1ncnc2c1ncn2C1OC(CO)C(O)C1O (centres undefined)", "label": "No"}
{"molecule": "O=C1c2cc3c(cc2-c2c1c1ccc(F)cc1c(=O)n2C[C@H](O)[C@@H](O)[C@H](O)CO)OCO3", "label": "Yes"}
{"molecule": "O=C(/C=C/c1cccc(Cl)c1)c1ccc(O)c(CN2CCN(c3cc4c(cc3F)c(=O)c(C(=O)O)cn4C3CC3)CC2)c1", "label": "No"}
{"molecule": "CC(=O)Nc1ccc(S(=O)(=O)Nc2cccc(-c3nc(-c4ccc(NC(=O)c5cccnc5)cc4Cl)no3)c2)cc1", "label": "No"}
{"molecule": "CC1CCNC(C)C1 (centres undefined)", "label": "No"}
{"molecule": "COc1ccc(C(=O)c2sc3nc4c(c(-c5cccnc5)c3c2N)CCCC4)cc1OC", "label": "No"}
{"molecule": "C#CCOc1ccc2ncnc(N3CCN(C(=O)CCl)CC3)c2c1", "label": "No"}
{"molecule": "CN1CCN(Cc2ccc(NC(=O)c3cncc(C#Cc4cncn5ccnc45)c3)cc2C(F)(F)F)CC1", "label": "No"}
